Test system: DU-145
experiment_description: Growth inhibition of human DU145 cells after 48 hrs by SRB assay
Type: functional
particulars: DU-145, 48 h
endpoint_name: log10(GI50) (log10 of the value in nM)
Field: value | Transform: log10 | Quantity: GI50 | Unit: nM

Record excerpt, results attached:
COc1cc(C2=NN(C(C)=O)C(c3cc(OC)c(OC)c(OC)c3)C2)ccc1O (centres undefined) :: 2.50
COc1cc(C2=NNC(c3ccc(N(C)C)cc3)C2)cc(OC)c1OC (centres undefined) :: 3.30
CCN(CC)c1ccc(C2=NN(C(C)=O)C(c3cc(OC)c(OC)c(OC)c3)C2)cc1 (centres undefined) :: 2.60
COc1cc(C2CC(c3ccc(N(C)C)cc3)=NN2C(C)=O)cc(OC)c1OC (centres undefined) :: 3.30
COc1cc(C2CC(c3cccc(O)c3)=NN2C(C)=O)cc(OC)c1OC (centres undefined) :: 3.50
CCN(CC)c1ccc(C2CC(c3cc(OC)c(OC)c(OC)c3)=NN2)cc1 (centres undefined) :: 2.60

If you can, please state the reported log10(GI50) value of COc1ccc(C2CC(c3cc(OC)c(OC)c(OC)c3)=NN2)cc1 (centres undefined) . 4.50

If you can, please state the reported log10(GI50) value of COc1ccc(/C=C\c2cc(OC)c(OC)c(OC)c2)cc1O [COMBRETASTATIN A4] . 1.00

If you can, please state the reported log10(GI50) value of COc1cc(C2CC(c3cccc(Br)c3)=NN2C(C)=O)cc(OC)c1OC (centres undefined) . 2.60
